Source listed as patent US9598398B2.

Tested On: human CH24H (Homo sapiens, UniProt Q9Y6A2)
Construct: Using Full-Length Mammalian Gene Collection No. 4819975 (Invitrogen) as a template; made in house; host or cells: FreeStyle 293-F cells, transient transfection with pcDNA3.1(+)/hCH24H; crude lysate supernatant
Sequence (Q9Y6A2 whole entry): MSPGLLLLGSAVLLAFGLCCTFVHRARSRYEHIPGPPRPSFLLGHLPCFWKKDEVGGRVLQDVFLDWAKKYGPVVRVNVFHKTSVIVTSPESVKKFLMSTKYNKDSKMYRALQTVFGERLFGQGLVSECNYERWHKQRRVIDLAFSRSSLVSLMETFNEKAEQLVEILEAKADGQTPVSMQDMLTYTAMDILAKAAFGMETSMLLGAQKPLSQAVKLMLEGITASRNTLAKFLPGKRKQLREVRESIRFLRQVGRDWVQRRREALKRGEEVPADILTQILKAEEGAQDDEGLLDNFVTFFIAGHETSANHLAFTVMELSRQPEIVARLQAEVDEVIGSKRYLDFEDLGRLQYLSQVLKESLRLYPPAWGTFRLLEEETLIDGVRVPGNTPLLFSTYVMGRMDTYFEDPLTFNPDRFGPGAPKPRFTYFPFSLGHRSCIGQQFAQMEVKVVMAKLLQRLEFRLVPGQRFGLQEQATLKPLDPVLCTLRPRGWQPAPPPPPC
Method Notes: Measurement of CH24H inhibitory activity (24-HC produced from [14C] cholesterol by human CH24H lysate)
Type: biochemical
Condition Details: test compound 1 μM, [14C] cholesterol 15 μM, 37° C., 5 hr, read-out: Inhibitory Rate in 1 μM (%)
Quick list: inhibition at 1 µM per entry.
Metric: inhibition at 1 µM (%)

• c1ccc(CN2CCC(Oc3ccccc3-c3ccncn3)CC2)cc1 = 94
• c1ccc(CN2CCC(Oc3cccnc3-c3ccncc3)CC2)cc1 = 86
• FC1(F)CN(Cc2ccccc2)CCC1Oc1ccccc1-c1ccncn1 (centres unmarked) = 91
• Cn1cc(CN2CCC(Oc3nccnc3-c3ccncc3)CC2)cn1 = 88
• COc1ccc(CC(=O)N2CCC(Oc3ccccc3-c3ccncn3)CC2)cc1 = 88
• c1ccc(CN2CCC(Oc3cccnc3-c3ccncc3)CC2)nc1 = 95
• c1cnc(-c2ccncc2)c(OC2CCN(Cc3cscn3)CC2)c1 = 90
• Cn1cc(S(=O)(=O)N2CCC(Oc3cc(F)ccc3-c3ccncn3)C2)cn1 (centres unmarked) = 87
• CCS(=O)(=O)N1CCC(Oc2cc(F)ccc2-c2ccncc2)C1 (centres unmarked) = 82
• O=C1CN(Cc2ccc(F)cc2)CCN1Cc1cccnc1-c1ccncc1 = 53
• O=S(=O)(c1ccccc1)N1CCC(Oc2cccnc2-c2ccncc2)C1 (centres unmarked) = 94
• COc1ccc(S(=O)(=O)N2CCC(Oc3cccnc3-c3ccncc3)C2)cc1 (centres unmarked) = 92
• CN(C)C(=O)CN1CCC(Oc2nccnc2-c2ccncc2)C(F)(F)C1 (centres unmarked) = 79
• Fc1ccc(OC2CCN(Cc3ccccc3)CC2)c(-c2ccncc2)c1 = 92
• Cn1ccnc1CN1CCC(Oc2ccccc2-c2ccncc2)CC1 = 93
• O=C(C1CC1)N1CCC(Oc2cccnc2-c2ccncc2)CC1 = 80
• c1ccc(CN2CCC(Oc3cccnc3-c3ccncc3)C2)cc1 (centres unmarked) = 89
• Cn1cc(CN2CCC(Oc3cccnc3-c3ccncc3)CC2)cn1 = 89
• Cn1cc(S(=O)(=O)N2CCC(Oc3cccnc3-c3ccncc3)C2)cn1 (centres unmarked) = 89
• COc1ccc(CN2CCN(C(=O)c3cc(C)ccc3-c3ccncc3)CC2)cc1 = 87
• O=S(=O)(c1ccc(F)cc1)N1CCC(Oc2nccnc2-c2ccncc2)C1 (centres unmarked) = 89
• O=S(=O)(N1CCOCC1)N1CCC(Oc2cccnc2-c2ccncc2)C1 (centres unmarked) = 84
• COc1ccc(CN2CCN(S(=O)(=O)c3ccc(F)cc3-c3ccncc3)CC2)cc1 = 59
